Target: cynomolgus monkey (cyno) TIGIT protein (cynomolgus monkey, UniProt A0A7N9I9V4 89-209)
Sequence (A0A7N9I9V4 entry or part of it): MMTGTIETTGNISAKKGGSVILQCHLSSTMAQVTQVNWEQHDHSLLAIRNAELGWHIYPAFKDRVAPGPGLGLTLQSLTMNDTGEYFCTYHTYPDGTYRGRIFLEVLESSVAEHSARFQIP
Assay: SPR, captured mAb
assay metric: pKd
The value called pKd is obtained by taking minus log10 of the concentration in mol/L.

What measured pKd goes with 7.4A3.C96S.Q1E (antibody, V domains shown, also called 7.4A3.Q1E.C96S) VH: EVQLVQSGSDLKKPGASVRVSCKASGYTFTSYPMNWVRQAPGHGLEWMGWINTNTGNPTYVQGFTGRFVFSLDTSVNTAYLQISSLKAEDTAVYFCARTGGHTYDSYAFDVWGQGTMVTVSS VL: DIQLTQSPTFLSASVGDRVTITCRASQVISSSLAWYQQNPGKAPKLLIYAASTLQSGVPSRFSGSGSGTEFTLTISSLQPEDFVTYYCQHLHGYPSNFGQGTKVEIK ?
8.70
